Source of measurements: patent US20150299143A1

Here the recorded IC50 is given for each entry.
system_tested: β 1c (caspase-like) (Homo sapiens, UniProt P28072+Q99436)
Construct: protease activity associated with the proteasome complex in cultured cells; endogenous in cells; host or cells: Ramos cells
assay_procedure: Cell-Based Proteasome subunit activity/selectivity assay, β1c, substrate (LLE)2Rh110
run_conditions: Ramos cells; substrate (LLE)2Rh110 (β1c); highest concentration tested 20 μM; read-out: Ic50:ramos:rh110-(lle)2

COc1cc(C(F)(F)F)ccc1C(=O)NCCn1cnc(C(=O)NC(C#N)c2ccc(Br)cc2)c1 (stereo not shown)
≥ 20 µM

Please supply the value of reported IC50 for the item CC(CCc1ccccc1)NC(=O)c1cn(CCNC(=O)c2ccc(C(F)(F)F)cc2F)nn1 (stereo not shown)
≥ 20 µM

Please supply the value of reported IC50 for the item CCc1ccc(C(C#N)NC(=O)c2cn(CCNC(=O)c3ccc(C(F)(F)F)cc3F)nn2)cc1 (stereo not shown)
≥ 20 µM

Please supply the value of reported IC50 for the item COc1ccc(C(=O)NCCn2cc(C(=O)NC(C#N)c3ccc(C(C)C)cc3)nn2)c(OC)c1OC (stereo not shown)
17.1 µM

* * *

system_tested: β 5i (chymotrypsin-like activity) (Homo sapiens, UniProt P20618+P28062)
Construct: protease activity associated with the proteasome complex in cultured cells; endogenous in cells
assay_procedure: Cell-Based Proteasome subunit activity/selectivity assay, β5i, substrate (ANW)2Rh110
run_conditions: Ramos cells; substrate (ANW)2Rh110 (β5i); highest concentration tested 20 μM; read-out: Ic50:ramos:ac-(anw)2-r110
experimental_endpoint: IC50 (nM)

Worked examples follow.
CCOC(=O)[C@H](CCc1ccccc1)NC(=O)c1cn(CCNC(=O)c2ccc(OC)c(OC)c2OC)nn1
447
COC(=O)[C@H](Cc1cc2ccccc2[nH]1)NC(=O)c1cn(CCNC(=O)c2ccc(C(F)(F)F)cc2F)nn1
162
CCc1ccc(C(C#N)NC(=O)c2cn(CCNC(=S)c3ccc(OC)c(OC)c3OC)nn2)cc1 (stereo not shown)
274
CCc1ccc(C(C#N)NC(=O)c2cn(CCNC(=O)C3Cc4ccccc4C3)nn2)cc1 (stereo not shown)
1260
O=C(N[C@@H](CCc1ccccc1)C(=O)O)c1cn(CCNC(=O)c2ccc(C(F)(F)F)cc2F)nn1
163

[1] CCc1ccc(C(C#N)NC(=O)c2cn(CCNC(=O)c3ccc(Cl)cc3F)nn2)cc1 (stereo not shown)
[2] COc1ccc(C(=O)NCCn2cc(C(=O)NC(C#N)c3ccc4c(c3)OCO4)nn2)c(OC)c1OC (stereo not shown)
Of the two listed items, 1 and 2 , which carries the larger IC50 figure? API: response body contains the label of the selected item.
2

[I] CCCc1ccc(C(C#N)NC(=O)c2cn(CCNC(=O)c3ccc(OC)c(OC)c3OC)nn2)cc1 (stereo not shown)
[II] CCc1ccc(C(C#N)NC(=O)c2cn(CCNC(=O)c3ccc(OC)c(OC)c3OC)nn2)cc1 (stereo not shown) [Example 1]
Of the two listed items, I and II , which carries the larger IC50 figure? API: response body contains the label of the selected item.
I

[P] CCc1ccc(C(C#N)NC(=O)c2cn(CCNC(=O)c3cc(Cl)cc(C)n3)nn2)cc1 (stereo not shown)
[Q] COc1ccc(C(=O)NCCn2cc(C(=O)NC(C#N)c3ccc4ccccc4c3)nn2)c(OC)c1OC (stereo not shown)
Of the two listed items, P and Q , which carries the larger IC50 figure? API: response body contains the label of the selected item.
P

[P] N#CC(NC(=O)c1cn(CCNC(=O)c2cc(Cl)ccc2Cl)nn1)c1ccc(C(F)(F)F)cc1 (stereo not shown)
[Q] COc1cc(C(F)(F)F)ccc1C(=O)NCCn1cc(C(=O)NC(C#N)c2ccc(C(F)(F)F)cc2)nn1 (stereo not shown)
Would you mind telling me which has the lower recorded IC50 between P and Q ? API: response body contains the label of the selected item.
Q
(Q: 524 nM, P: 3790 nM)

* * *

system_tested: β 5i (chymotrypsin-like activity) (Homo sapiens, UniProt P20618+P28062)
Construct: protease activity associated with the proteasome complex in cultured cells; endogenous in cells
assay_procedure: Cell-Based Proteasome subunit activity/selectivity assay, β5i, substrate (ANW)2Rh110
run_conditions: Ramos cells; substrate (ANW)2Rh110 (β5i); highest concentration tested 20 μM; read-out: Ic50:ramos:ac-(anw)2-r110
pIC50: −log10 of the molar value.
experimental_endpoint: pIC50

Worked examples follow.
Cc1ccc(C(=O)NCCn2cc(C(=O)NC(C#N)c3ccc(C(F)(F)F)cc3)nn2)c(F)c1 (stereo not shown)
5.86
COc1ccc(C(=O)NCCn2cc(C(=O)NC(C#N)c3ccc(C)cc3)nn2)c(OC)c1OC (stereo not shown)
6.39

[P] CCc1ccc(C(C#N)NC(=O)c2cn(CCNC(=O)c3ccc(Cl)cn3)nn2)cc1 (stereo not shown)
[Q] CCc1ccc(C(C#N)NC(=O)c2nc(CCNC(=O)c3ccc(C(F)(F)F)cc3OC)n[nH]2)cc1 (stereo not shown)
Of the two listed items, P and Q , which carries the larger pIC50 figure? API: response body contains the label of the selected item.
Q

* * *

system_tested: β 5i (chymotrypsin-like activity) (Homo sapiens, UniProt P20618+P28062)
Construct: protease activity associated with the proteasome complex in cultured cells; endogenous in cells
assay_procedure: Cell-Based Proteasome subunit activity/selectivity assay, β5i, substrate (ANW)2Rh110
run_conditions: Ramos cells; substrate (ANW)2Rh110 (β5i); highest concentration tested 20 μM; read-out: Ic50:ramos:ac-(anw)2-r110
Source text: Cell-Based Proteasome Activity/Selectivity Assay The Cell-Based Proteasome subunit activity/selectivity assay was a panel of 5 fluorogenic assays that independently measured the activity of β5c or β 5i (chymotrypsin-like activity), β 2c/2i (trypsin-like), and β 1c or β 1i (caspase-like) protease activity associated with the proteasome complex in cultured cells. […]
pIC50: −log10 of the molar value.
experimental_endpoint: pIC50

Worked examples follow.
COc1ccc(C(=O)NCCn2cc(C(=O)NC(C#N)c3ccc4ccsc4c3)nn2)c(OC)c1OC (centres unmarked)
6.10
CCOC(=O)[C@H](CCc1ccccc1)NC(=O)c1cn(CCNC(=O)c2ccc(C(F)(F)F)cc2F)nn1
6.69
COc1cc(C(F)(F)F)ccc1C(=O)NCCn1cnc(C(=O)NC(C#N)c2ccc(Br)cc2)c1 (centres unmarked)
6.30
CCOc1ccc(C(=O)NCCn2cc(C(=O)NC(C#N)c3ccc(CC)cc3)nn2)nc1 (centres unmarked)
6.03
COc1ccc(C(=O)NCCn2cc(C(=O)NCc3ccc(C)cc3)nn2)c(OC)c1OC
5.54

[A] CCc1ccc(C(C#N)NC(=O)c2cn(CCNC(=O)c3ccc(F)cc3OC)nn2)cc1 (centres unmarked)
[B] CCc1ccc(C(C#N)NC(=O)c2cn(CCNC(=O)c3ccc(Cl)cc3OC)nn2)cc1 (centres unmarked)
[C] CCc1ccc(C(C#N)NC(=O)c2nc(CCNC(=O)c3ccc(C(F)(F)F)cc3F)n[nH]2)cc1 (centres unmarked)
Kindly order the items shown according to pIC50, from the highest value down. Give me the labels in the order the question wants.
C, B, A
(C: 7.27, B: 6.71, A: 5.69)

* * *

system_tested: β 1c (caspase-like) (Homo sapiens, UniProt P28072+Q99436)
Construct: protease activity associated with the proteasome complex in cultured cells; endogenous in cells; host or cells: Ramos cells
assay_procedure: Cell-Based Proteasome subunit activity/selectivity assay, β1c, substrate (LLE)2Rh110
pIC50: −log10 of the molar value.
Here the recorded pIC50 is given for each entry.

COc1ccc(C(=O)NCCn2cc(C(=O)NC(C#N)c3cccc4ccccc34)nn2)c(OC)c1OC (centres unmarked) [Example 57]
≤ 4.70

Please supply the value of reported pIC50 for the item COc1ccc(C(=O)NCCn2cc(C(=O)N[C@@H](CCc3ccccc3)C(=O)O)nn2)c(OC)c1OC [Example 83]
≤ 4.70

* * *

system_tested: β 5i (chymotrypsin-like activity) (Homo sapiens, UniProt P20618+P28062)
Construct: protease activity associated with the proteasome complex in cultured cells; endogenous in cells
assay_procedure: Cell-Based Proteasome subunit activity/selectivity assay, β5i, substrate (ANW)2Rh110
run_conditions: Ramos cells; substrate (ANW)2Rh110 (β5i); highest concentration tested 20 μM; read-out: Ic50:ramos:ac-(anw)2-r110
experimental_endpoint: IC50 (µM)

Worked examples follow.
COc1ccc(C(=O)NCCn2cc(C(=O)NC(C#N)c3ccc(OC(C)C)cc3)nn2)c(OC)c1OC (centres unmarked) [Example 67]
5.49
CCc1ccc(C(C#N)NC(=O)c2cn(CCNC(=O)c3cccnc3OC)nn2)cc1 (centres unmarked) [Example 29]
3.05
CCc1ccc(C(C#N)NC(=O)c2cn(CCNC(=O)c3ccccc3OC(F)(F)F)nn2)cc1 (centres unmarked) [Example 24]
0.779
CCc1ccc(C(C#N)NC(=O)c2cn(CCNC(=O)CC3Cc4ccccc4C3)nn2)cc1 (centres unmarked) [Example 9]
4.29
COc1ccc(C(=O)NCCn2cc(C(=O)NC(C#N)c3ccc(C(C)C)cc3)nn2)c(OC)c1OC (centres unmarked) [Example 61]
1.31
COc1ccc(C(=O)NCCn2cc(C(=O)N[C@@H](Cc3ccccc3)C(=O)C(=O)NCc3ccccc3)nn2)c(OC)c1OC [Example 88]
0.461
COc1ccc(C(=O)NCCn2cc(C(=O)NC(C#N)c3ccccc3Br)nn2)c(OC)c1OC (centres unmarked) [Example 59]
5.67
CCc1ccc(C(C#N)NC(=O)c2cn(CCNC(=O)c3cc(C(F)(F)F)ccc3F)nn2)cc1 (centres unmarked) [Example 37]
0.071

[1] COc1ccc(C(=O)NCCn2cc(C(=O)NCc3ccc(Cl)cc3)nn2)c(OC)c1OC [Example 5]
[2] CC(CCc1ccccc1)NC(=O)c1cn(CCNC(=O)c2ccc(C(F)(F)F)cc2F)nn1 (centres unmarked) [Example 79]
[3] COc1ccc(C(=O)NCCn2cc(C(=O)NC(C#N)c3cccc(SC)c3)nn2)c(OC)c1OC (centres unmarked) [Example 55]
[4] CCc1ccc(C(C#N)NC(=O)c2cn(CCNC(=O)c3cc(C(F)(F)F)ccc3OC)nn2)cc1 (centres unmarked) [Example 39]
[5] CCc1ccc(C(C#N)NC(=O)c2cn(CCNC(=O)c3ccc(Oc4ccc(Cl)cc4)cn3)nn2)cc1 (centres unmarked) [Example 43]
Kindly order the items shown according to IC50, from the highest value down. Give me the labels in the order the question wants.
1, 3, 5, 4, 2
(1: 6.49 µM, 3: 4.02 µM, 5: 1.43 µM, 4: 0.517 µM, 2: 0.159 µM)

[a] COc1ccc(C(=O)NCCn2cc(C(=O)NC(C#N)c3ccc(C4CC4)cc3)nn2)c(OC)c1OC (centres unmarked) [Example 58]
[b] CCc1ccc(C(C#N)NC(=O)c2cn(CCNC(=O)c3cccc(OC)n3)nn2)cc1 (centres unmarked) [Example 26]
[c] CCc1ccc(C(C#N)NC(=O)c2cn(CCCNC(=O)c3ccc(C(F)(F)F)cc3OC)nn2)cc1 (centres unmarked) [Example 85]
[d] CCc1ccc(C(C#N)NC(=O)c2cn(CCNC(=O)CC3(O)Cc4ccccc4C3)nn2)cc1 (centres unmarked) [Example 22]
[e] CCc1ccc(C(C#N)NC(=O)c2nc(CCNC(=O)c3ccc(OC)c(OC)c3OC)n[nH]2)cc1 (centres unmarked) [Example 89]
Hey, quick one: sort these by IC50, low to high? Give me the labels in the order the question wants.
e, a, c, b, d
